Value source: paper PMC3316592

test target: recombinant LstiGOBP2 (Loxostege sticticalis, UniProt C6ZDA6)
Sequence (C6ZDA6 entry or part of it): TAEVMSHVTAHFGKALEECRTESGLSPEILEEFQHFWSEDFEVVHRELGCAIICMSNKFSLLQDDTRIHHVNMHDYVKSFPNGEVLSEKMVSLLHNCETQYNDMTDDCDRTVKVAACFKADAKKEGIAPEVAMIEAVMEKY
assay procedure: biochemical
Type: binding
pKi: −log10 of the molar value.
Label rule, in plain words: pKi of 5 and up is satisfied, under 5 is not satisfied.

Asked: Check the entry CCC/C=C\CO [Cis-2-hexen-1-ol] : does pKi equal or exceed 5?
Given back: not satisfied

Asked: Check the entry C=CC(C)(O)CCC=C(C)C (single isomer, unassigned; (-)) [(-)-Linalool] : does pKi equal or exceed 5?
Given back: not satisfied

Asked: Check the entry `CC=CCCCO` : does pKi equal or exceed 5?
Given back: not satisfied

Asked: Check the entry CCC/C=C/C=O [Trans-2-hexenal] : does pKi equal or exceed 5?
Given back: satisfied

---

test target: recombinant LstiGOBP2 (Loxostege sticticalis)
assay procedure: biochemical
Assay type: binding
Would you kindly list IC50 for each of these compounds?
Give the quantity in µM, number only.

Asked: // lookup IC50 for C=CC(C)(O)CCC=C(C)C (single isomer, unassigned; (-)) [(-)-Linalool]
Given back: 28

Asked: // lookup IC50 for CCC/C=C\CO [Cis-2-hexen-1-ol]
Given back: 24

Asked: // lookup IC50 for `CC=CCCCO`
Given back: 26

Asked: // lookup IC50 for CCC/C=C/C=O [Trans-2-hexenal]
Given back: 10.5

Asked: // lookup IC50 for CC12CCC(CC1=O)C2(C)C (stereo not shown)
Given back: 14

---

test target: recombinant LstiGOBP2 (Loxostege sticticalis, UniProt C6ZDA6)
assay procedure: biochemical
Assay type: binding
protocol conditions: read-out: Int (fluorescence intensity as percent of the initial fluorescence), at ligand concentration 20 µM; protein 2 µM, 1-NPN probe
reported property: activity at 20 µM (%)
Give the quantity in %, number only.

Asked: // lookup activity at 20 µM for O=C/C=C/c1ccccc1 [Cinnamaldehyde]
Given back: 45

Asked: // lookup activity at 20 µM for O=Cc1ccccc1 [Benzaldehyde]
Given back: 48

Asked: // lookup activity at 20 µM for COC(=O)c1ccccc1C(=O)OC [Dimethyl phthalate]
Given back: 50

Asked: // lookup activity at 20 µM for CC(=O)/C=C/C1C(C)=CCCC1(C)C (stereo not drawn) [α-ionone]
Given back: 39

Asked: // lookup activity at 20 µM for CC(C)=CCC/C(C)=C/CO [Geraniol]
Given back: 54

Asked: // lookup activity at 20 µM for CC(=O)/C=C/C1=C(C)CCCC1(C)C [β-ionone]
Given back: 37

Asked: // lookup activity at 20 µM for CC(=O)CCC=C(C)C [6-Methyl-5-hepten-2-one]
Given back: 64

---

test target: recombinant LstiGOBP2 (Loxostege sticticalis, UniProt C6ZDA6)
assay procedure: biochemical
Assay type: binding
protocol conditions: Ki (relative dissociation constant), calculated from IC50: Ki = [IC50]/1+[1-NPN]/K1-NPN
pKi: −log10 of the molar value.
Label rule, in plain words: pKi of 5 and up is met, under 5 is not met.

Asked: Check the entry `CC(=O)CCC=C(C)C` : does pKi equal or exceed 5?
Given back: not met

Asked: Check the entry `CC(=O)/C=C/C1=C(C)CCCC1(C)C` : does pKi equal or exceed 5?
Given back: met

Asked: Check the entry CC(=O)/C=C/C1C(C)=CCCC1(C)C (stereo not drawn) : does pKi equal or exceed 5?
Given back: met

---

test target: recombinant LstiGOBP2 (Loxostege sticticalis)
assay procedure: biochemical
reported property: Kd

Asked: // lookup Kd for c1ccc(Nc2cccc3ccccc23)cc1 [1-NPN, N-phenyl-1-naphthylamine, reference compound]
Given back: ~1440 nM

---

test target: recombinant LstiGOBP2 (Loxostege sticticalis)
assay procedure: biochemical
Format: binding
Method: Fluorescence spectra were recorded in a right angle configuration on a Lengguang 970 CRT spectrofluorimeter (Shanghai Jingmi, China) at room temperature using a 1-cm light path fluorimeter quartz cuvette. Slit widths of 10 nm were selected for both excitation and emission. […] N-phenyl-1-naphthylamine (1-NPN) was dissolved in methanol to yield a 1 mM stock solution. […] 1-NPN was excited at 337 nm and emission spectra were recorded between 350 and 600 nm. Spectra were recorded with high-speed scanning. […]
Would you kindly list pKi for each of these compounds?
Note on pKi: it is the negative log10 of concentration, concentration in mol/L.

Asked: // lookup pKi for `c1ccc2scnc2c1`
Given back: 4.89

Asked: // lookup pKi for `CC(C)(C)c1ccc(O)c(C(C)(C)C)c1`
Given back: 4.93

Asked: // lookup pKi for `CCCCCC=O`
Given back: 5.14

Asked: // lookup pKi for CC/C=C\CCO [Cis-3-hexen-1-ol]
Given back: 4.95

---

test target: recombinant LstiGOBP2 (Loxostege sticticalis)
assay procedure: biochemical
Format: binding
protocol conditions: Ki (relative dissociation constant), calculated from IC50: Ki = [IC50]/1+[1-NPN]/K1-NPN
reported property: Ki
The answer should read as a number with its unit following.

Asked: // lookup Ki for CC(C)=CCC/C(C)=C/CO [Geraniol]
Given back: 12.9 µM

Asked: // lookup Ki for O=C/C=C/c1ccccc1 [Cinnamaldehyde]
Given back: 10 µM

Asked: // lookup Ki for O=Cc1ccccc1 [Benzaldehyde]
Given back: 11.2 µM
